As shown below, each of these compounds has a reported fold change (FC) value.
target: Protein cereblon/Cytochrome P450 1B1 (Homo sapiens, UniProt Q16678+Q96SW2); experiment: PROTAC activity at CRBN/CYP1B1 in human A549/Taxol cells assessed as degradation by measuring fold change in remaining CYP1B1 level at 1000 nM incubated for 24 hrs by Western blotting analysis (reference value: 1); assay type: ADME, cell-based; settings: 1 µM
Sequence (Q96SW2 whole entry, one chain of several): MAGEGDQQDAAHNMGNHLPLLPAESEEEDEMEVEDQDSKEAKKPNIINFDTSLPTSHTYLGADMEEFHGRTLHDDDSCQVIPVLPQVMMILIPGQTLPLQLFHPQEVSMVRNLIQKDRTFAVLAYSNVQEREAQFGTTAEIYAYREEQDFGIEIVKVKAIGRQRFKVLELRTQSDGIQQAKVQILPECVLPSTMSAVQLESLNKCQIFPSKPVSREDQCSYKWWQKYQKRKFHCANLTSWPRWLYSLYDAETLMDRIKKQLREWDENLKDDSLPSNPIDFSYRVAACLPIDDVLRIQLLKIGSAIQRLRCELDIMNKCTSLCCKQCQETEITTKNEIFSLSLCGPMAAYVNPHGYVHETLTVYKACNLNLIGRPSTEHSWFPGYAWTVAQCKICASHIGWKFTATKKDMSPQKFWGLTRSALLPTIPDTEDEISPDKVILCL

For the compound O=C1CCC(N2Cc3c(NC(=O)CCCCCCCCCC(=O)Nc4ccc(-c5csc(-c6csc(Nc7ccc(Cl)cc7)n6)n5)cc4)cccc3C2=O)C(=O)N1 (stereo not drawn) , report fold change (FC).
1.3

New cases:
# return recorded fold change (FC) for input O=C1CCC(N2C(=O)c3cccc(NC(=O)CN4CCN(CCCCCCCCCCC(=O)Nc5ccc(-c6csc(-c7csc(Nc8ccc(Cl)cc8)n7)n6)cc5)CC4)c3C2=O)C(=O)N1 (stereo not drawn)
1.5

Given O=C1CCC(N2C(=O)c3cccc(NC(=O)CN4CCN(CCCCCCCCCCCC(=O)Nc5ccc(-c6csc(-c7csc(Nc8ccc(Cl)cc8)n7)n6)cc5)CC4)c3C2=O)C(=O)N1 (stereo not drawn) , respond with its fold change (FC).
1.1

---

Examples of molecules with documented fold change (FC) follow.
biological target: von Hippel-Lindau disease tumor suppressor/Cytochrome P450 1B1 (Homo sapiens, UniProt Q16678+P40337); experiment: PROTAC activity at VHL/CYP1B1 in human A549/Taxol cells assessed as degradation by measuring fold change in remaining CYP1B1 level at 1 nM incubated for 24 hrs by Western blotting analysis (reference value: 1); format: ADME, cell-based; conditions: 0.001 µM
Sequence (Q16678 whole entry): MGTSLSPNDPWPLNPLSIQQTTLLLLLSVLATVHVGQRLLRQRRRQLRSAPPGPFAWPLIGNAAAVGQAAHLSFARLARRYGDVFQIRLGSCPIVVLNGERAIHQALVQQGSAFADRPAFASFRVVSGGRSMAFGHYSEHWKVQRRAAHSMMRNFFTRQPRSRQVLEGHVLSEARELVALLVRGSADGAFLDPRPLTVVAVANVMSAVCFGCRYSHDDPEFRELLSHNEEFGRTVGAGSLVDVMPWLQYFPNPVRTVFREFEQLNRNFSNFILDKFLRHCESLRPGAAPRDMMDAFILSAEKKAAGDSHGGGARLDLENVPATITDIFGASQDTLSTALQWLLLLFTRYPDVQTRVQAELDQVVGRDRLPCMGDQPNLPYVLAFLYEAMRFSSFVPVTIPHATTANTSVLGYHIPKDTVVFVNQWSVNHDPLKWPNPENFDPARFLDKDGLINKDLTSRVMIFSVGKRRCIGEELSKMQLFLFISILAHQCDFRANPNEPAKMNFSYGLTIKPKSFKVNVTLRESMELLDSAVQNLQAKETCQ
Sequence (P40337 whole entry): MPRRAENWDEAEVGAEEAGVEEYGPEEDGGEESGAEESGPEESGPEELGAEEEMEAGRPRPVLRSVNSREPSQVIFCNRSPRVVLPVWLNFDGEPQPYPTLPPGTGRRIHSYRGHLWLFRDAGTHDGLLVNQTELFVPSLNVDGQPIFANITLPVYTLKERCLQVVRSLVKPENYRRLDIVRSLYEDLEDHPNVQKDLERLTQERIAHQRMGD
Please give the numeric answer without any surrounding text.

Read the entry `Cc1ncsc1-c1ccc([C@H](C)NC(=O)[C@@H]2C[C@@H](O)CN2C(=O)[C@@H](NC(=O)Cn2cc(CCCCCOc3ccccc3-c3csc(-c4csc(Nc5ccc(Cl)cc5)n4)n3)nn2)C(C)(C)C)cc1` and write its reported fold change (FC).
1.1

Read the entry `Cc1ncsc1-c1ccc([C@H](C)NC(=O)[C@@H]2C[C@@H](O)CN2C(=O)[C@@H](NC(=O)Cn2cc(COCCOCCOc3ccccc3-c3csc(-c4csc(Nc5ccc(Cl)cc5)n4)n3)nn2)C(C)(C)C)cc1` and write its reported fold change (FC).
1.1

Hello, please tell me recorded fold change (FC) for this one: `Cc1ncsc1-c1ccc([C@H](C)NC(=O)[C@@H]2C[C@@H](O)CN2C(=O)[C@@H](NC(=O)CCCCCCCCCOc2ccccc2-c2csc(-c3csc(Nc4ccc(Cl)cc4)n3)n2)C(C)(C)C)cc1`
1.5

The record that follows has no fold change (FC) shown yet.
Write down fold change (FC) measured for item `Cc1ncsc1-c1ccc([C@H](C)NC(=O)[C@@H]2C[C@@H](O)CN2C(=O)[C@@H](NC(=O)CCCCCOc2ccccc2-c2csc(-c3csc(Nc4ccc(Cl)cc4)n3)n2)C(C)(C)C)cc1`
0.5

---

target: Protein cereblon/Cytochrome P450 1B1 (Homo sapiens, UniProt Q16678+Q96SW2); assay: PROTAC activity at CRBN/CYP1B1 in human A549/Taxol cells assessed as degradation by measuring fold change in remaining CYP1B1 level at 1000 nM incubated for 24 hrs by Western blotting analysis (reference value: 1); assay type: ADME, cell-based; details: 1 µM
Let's look at some compounds and their measured fold change (FC).
Field format: numeric only.

Look up Protein cereblon/Cytochrome P450 1B1 (Homo sapiens, UniProt Q16678+Q96SW2) data: fold change (FC) of O=C1CCC(N2Cc3c(NC(=O)CCCCCCCCCCCC(=O)Nc4ccc(-c5csc(-c6csc(Nc7ccc(Cl)cc7)n6)n5)cc4)cccc3C2=O)C(=O)N1 (stereo unspecified) , then report it.
1

Enter recorded fold change (FC) with Protein cereblon/Cytochrome P450 1B1 (Homo sapiens, UniProt Q16678+Q96SW2) for O=C1CCC(N2C(=O)c3cccc(NC(=O)CN4CCN(CCCCCCCCC(=O)Nc5ccc(-c6csc(-c7csc(Nc8ccc(Cl)cc8)n7)n6)cc5)CC4)c3C2=O)C(=O)N1 (stereo unspecified) here.
1.6

Retrieve fold change (FC) on Protein cereblon/Cytochrome P450 1B1 (Homo sapiens, UniProt Q16678+Q96SW2); query O=C1CCC(N2Cc3c(NC(=O)CCCCCCCC(=O)Nc4ccc(-c5csc(-c6csc(Nc7ccc(Cl)cc7)n6)n5)cc4)cccc3C2=O)C(=O)N1 (stereo unspecified)
1

New cases:
With Protein cereblon/Cytochrome P450 1B1 (Homo sapiens, UniProt Q16678+Q96SW2) as the test system, provide measured fold change (FC) for this compound: O=C1CCC(N2Cc3c(NC(=O)CCCCCCCCCCCCCC(=O)Nc4ccc(-c5csc(-c6csc(Nc7ccc(Cl)cc7)n6)n5)cc4)cccc3C2=O)C(=O)N1 (stereo unspecified)
1

// fetch fold change (FC); item: O=C1CCC(N2C(=O)c3cccc(NC(=O)CN4CCN(CCCCCCC(=O)Nc5ccc(-c6csc(-c7csc(Nc8ccc(Cl)cc8)n7)n6)cc5)CC4)c3C2=O)C(=O)N1 (stereo unspecified) ; system: Protein cereblon/Cytochrome P450 1B1 (Homo sapiens, UniProt Q16678+Q96SW2)
0.9

State the measured fold change (FC) (Protein cereblon/Cytochrome P450 1B1 (Homo sapiens, UniProt Q16678+Q96SW2)) of O=C1CCC(N2C(=O)c3cccc(NC(=O)CN4CCN(CCCCCC(=O)Nc5ccc(-c6csc(-c7csc(Nc8ccc(Cl)cc8)n7)n6)cc5)CC4)c3C2=O)C(=O)N1 (stereo unspecified)
1.2
